Assignment: determine reported IC50 for the given compounds.
Biological target: EGFR (Homo sapiens, UniProt P00533)
Sequence (P00533 25-1210): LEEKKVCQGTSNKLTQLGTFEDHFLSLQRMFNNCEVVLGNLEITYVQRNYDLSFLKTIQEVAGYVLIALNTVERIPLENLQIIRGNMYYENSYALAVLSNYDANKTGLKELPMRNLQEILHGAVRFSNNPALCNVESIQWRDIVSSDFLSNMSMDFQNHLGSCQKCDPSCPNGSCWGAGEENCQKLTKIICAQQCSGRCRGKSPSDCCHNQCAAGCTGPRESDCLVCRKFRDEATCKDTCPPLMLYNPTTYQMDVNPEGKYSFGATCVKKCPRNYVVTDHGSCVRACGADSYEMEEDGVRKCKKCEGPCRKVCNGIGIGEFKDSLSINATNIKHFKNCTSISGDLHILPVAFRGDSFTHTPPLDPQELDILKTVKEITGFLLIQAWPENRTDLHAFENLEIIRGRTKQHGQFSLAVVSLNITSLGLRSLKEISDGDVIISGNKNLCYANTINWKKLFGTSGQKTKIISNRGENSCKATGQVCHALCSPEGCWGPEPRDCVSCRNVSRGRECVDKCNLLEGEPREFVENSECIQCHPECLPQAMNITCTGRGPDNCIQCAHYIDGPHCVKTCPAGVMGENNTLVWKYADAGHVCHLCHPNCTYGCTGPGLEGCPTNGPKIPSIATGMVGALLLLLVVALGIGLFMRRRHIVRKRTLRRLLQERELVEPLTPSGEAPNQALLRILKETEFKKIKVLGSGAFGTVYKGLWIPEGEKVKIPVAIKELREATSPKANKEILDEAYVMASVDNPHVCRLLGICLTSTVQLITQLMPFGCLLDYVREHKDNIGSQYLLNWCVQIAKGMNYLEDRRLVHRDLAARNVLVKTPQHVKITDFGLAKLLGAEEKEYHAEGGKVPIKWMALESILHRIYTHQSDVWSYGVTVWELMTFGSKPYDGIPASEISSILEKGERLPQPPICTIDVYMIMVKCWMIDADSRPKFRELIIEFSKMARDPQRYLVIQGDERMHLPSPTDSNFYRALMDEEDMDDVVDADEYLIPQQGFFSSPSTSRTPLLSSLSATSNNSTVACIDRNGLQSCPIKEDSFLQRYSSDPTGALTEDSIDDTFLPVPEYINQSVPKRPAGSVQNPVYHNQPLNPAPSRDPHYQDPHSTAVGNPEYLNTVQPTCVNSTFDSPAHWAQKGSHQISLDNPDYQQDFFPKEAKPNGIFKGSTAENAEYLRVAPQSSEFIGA

- C=CC(=O)N1CCC[C@@H](Nc2n[nH]c3nccc(Oc4cccc(C(=O)Nc5ncc(C)s5)c4)c23)C1: < 0.1 µM
- CCOP(=O)(CCCC(=O)N1CCC[C@@H](Nc2n[nH]c3nccc(Oc4ccc(C(=O)Nc5cc(C)ccn5)cc4)c23)C1)OCC: > 10 µM
- CN(C/C=C/C(=O)N1CCC[C@@H](Nc2n[nH]c3nccc(Oc4ccc(C(=O)Nc5nc6ccccc6s5)cc4)c23)C1)C1CC1: 1 to 10 µM
- CN1CCC(C(=O)N2CCC[C@@H](Nc3n[nH]c4nccc(Oc5ccc(C(=O)Nc6cc(C(F)(F)F)ccn6)cc5)c34)C2)CC1: 1 to 10 µM
- CC#CC(=O)N1CCC[C@@H](Nc2n[nH]c3nccc(Oc4ccc(C(=O)Nc5ncc(C)s5)cc4)c23)C1: > 10 µM

Attention now shifts to the item below.
Report IC50 for Cc1ccnc(NC(=O)c2ccc(Oc3ccnc4[nH]nc(N[C@@H]5CCCN(C(=O)N(C)C)C5)c34)cc2)c1 1 to 10 µM

----------
Target: JAK3 (Homo sapiens)
Sequence (P52333 1-1124): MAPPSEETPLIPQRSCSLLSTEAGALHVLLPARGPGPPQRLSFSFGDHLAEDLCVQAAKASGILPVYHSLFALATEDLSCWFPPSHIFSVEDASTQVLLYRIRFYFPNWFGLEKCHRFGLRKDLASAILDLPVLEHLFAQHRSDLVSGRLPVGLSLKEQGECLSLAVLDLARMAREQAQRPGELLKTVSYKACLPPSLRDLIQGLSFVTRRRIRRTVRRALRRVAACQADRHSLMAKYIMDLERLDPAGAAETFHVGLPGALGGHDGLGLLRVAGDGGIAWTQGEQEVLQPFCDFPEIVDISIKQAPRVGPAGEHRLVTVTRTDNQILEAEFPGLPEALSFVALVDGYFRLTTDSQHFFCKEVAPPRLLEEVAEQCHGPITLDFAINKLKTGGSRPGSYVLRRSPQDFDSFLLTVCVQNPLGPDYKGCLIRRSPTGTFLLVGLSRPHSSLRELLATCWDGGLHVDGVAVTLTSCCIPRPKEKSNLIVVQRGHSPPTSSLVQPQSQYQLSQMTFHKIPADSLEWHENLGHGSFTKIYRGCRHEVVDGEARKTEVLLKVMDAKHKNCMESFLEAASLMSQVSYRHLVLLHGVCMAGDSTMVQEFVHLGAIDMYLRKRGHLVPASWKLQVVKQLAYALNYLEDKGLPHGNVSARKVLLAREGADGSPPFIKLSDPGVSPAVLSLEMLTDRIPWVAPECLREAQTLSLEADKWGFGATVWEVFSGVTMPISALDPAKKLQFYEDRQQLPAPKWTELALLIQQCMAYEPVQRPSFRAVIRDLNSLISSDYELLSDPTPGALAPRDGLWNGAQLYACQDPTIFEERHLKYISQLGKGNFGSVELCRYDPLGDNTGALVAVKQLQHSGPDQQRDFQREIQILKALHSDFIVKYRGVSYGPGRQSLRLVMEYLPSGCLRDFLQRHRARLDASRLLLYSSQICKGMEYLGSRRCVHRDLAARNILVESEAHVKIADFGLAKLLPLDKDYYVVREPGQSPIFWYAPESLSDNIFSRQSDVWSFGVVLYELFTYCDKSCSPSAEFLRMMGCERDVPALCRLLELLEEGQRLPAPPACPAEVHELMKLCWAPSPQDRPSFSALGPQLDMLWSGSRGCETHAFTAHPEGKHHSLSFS
pIC50: −log10 of the molar value.
So I've got a bunch of compounds here, and I need their pIC50 values.

Hi team, please reply with pIC50 for each item in this list.
1. Cc1ccnc(NC(=O)c2ccc(Oc3ccnc4[nH]nc(N[C@@H]5CCCN(C(=O)[C@@H]6CCCO6)C5)c34)cc2)c1
2. C=CC(=O)N1CCC[C@@H](Nc2n[nH]c3nccc(Oc4ccc(C(=O)Nc5nnc(C)s5)cc4)c23)C1
3. Cc1cnc(NC(=O)c2ccc(Oc3ccnc4[nH]nc(N[C@@H]5CCN(C(=O)C6CC6)C5)c34)cc2)s1
4. Cc1ccnc(NC(=O)c2ccc(Oc3ccnc4[nH]nc(N[C@@H]5CCCN(C(=O)c6ccccc6F)C5)c34)cc2)c1

5.00 to 6.00
> 7.00
< 5.00
< 5.00

These entries and their values trace back to patent US9580416B2.
